Target: SHP2 (Homo sapiens)
Construct: GST-SHP2 (residues 205–593)
Sequence (Q06124 205-593): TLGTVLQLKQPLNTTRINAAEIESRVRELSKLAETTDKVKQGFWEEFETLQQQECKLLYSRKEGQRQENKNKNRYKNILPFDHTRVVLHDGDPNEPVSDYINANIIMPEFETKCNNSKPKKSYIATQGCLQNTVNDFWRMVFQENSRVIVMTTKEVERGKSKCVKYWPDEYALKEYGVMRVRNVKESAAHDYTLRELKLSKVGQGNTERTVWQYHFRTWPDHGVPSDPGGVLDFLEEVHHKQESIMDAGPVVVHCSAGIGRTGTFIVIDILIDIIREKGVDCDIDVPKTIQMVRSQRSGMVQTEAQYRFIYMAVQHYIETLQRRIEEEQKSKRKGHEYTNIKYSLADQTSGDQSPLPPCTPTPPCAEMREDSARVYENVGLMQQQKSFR
Assay: DiFMUP phosphatase assay with recombinant SHP2; supported by cellular thermal shift assay in HEK293A lysate
ASSAY_READOUT: pIC50
The scale used: pIC50 is minus the common logarithm of the concentration in molar units.

So for O=c1c(O)c(-c2ccc(O)c(O)c2)oc2cc(O)cc(O)c12 [quercetin] , the logged pIC50 turned out to be 4.99
